Data origin: ChEMBL document CHEMBL1125020

Record type: Ki measurement. Applies to: Adenosine A2 receptor (Rattus norvegicus, UniProt P29276+P30543)
metric: Ki (nM)

>>> print(df.to_string())
                                   compound                     target_or_test_system  unit_annotation  number
0  CCCn1c(=O)c2nc(C(C)Cc3ccccc3)[nH]c2n(CCC)c1=O (stereo not given)  Adenosine A2 receptor (Rattus norvegicus, UniProt P29276+P30543)               nM     644

[P] Cn1c(=O)c2nc(-c3ccccc3)[nH]c2n(C)c1=O
[Q] CCCn1c(=O)c2nc([C@H](C)Cc3ccccc3)[nH]c2n(CCC)c1=O
(Q) // returns P or Q , whichever has the lower Ki Refer to your chosen item by its label in the answer.
(A) P
(P: 20.9 nM, Q: 157 nM)

---

# assay_text: Inhibition of Adenylate Cyclase in Rat adipocytes
# Format: cell-based
pIC50: −log10 of the molar value.
metric: pIC50

Observe how each entry below is paired with its result.
                                   compound  metric  number
0  OC[C@H]1O[C@@H](n2cnc3c(NCc4ccccc4)ncnc32)[C@H](O)[C@@H]1O [N6-BENZYLADENOSINE]   pIC50    5.66
1  Cn1c(=O)c2nc(C3CCCC3)[nH]c2n(C)c1=O [8-CYCLOPENTYLTHEOPHYLLINE]   pIC50    9.33
2      Cn1c(=O)c2nc(C3CCCCC3)[nH]c2n(C)c1=O   pIC50    8.60
3  OC[C@H]1O[C@@H](n2cnc3c(Nc4ccccc4)ncnc32)[C@H](O)[C@@H]1O [N6-PHENYLADENOSINE]   pIC50    6.72
4  OC[C@H]1O[C@@H](n2cnc3c(NC4CCCCC4)ncnc32)[C@H](O)[C@@H]1O   pIC50    7.57
5         Cn1c(=O)c2nc(C3CC3)[nH]c2n(C)c1=O   pIC50    7.38
6  Cn1c(=O)c2nc[nH]c2n(C)c1=O [THEOPHYLLINE]   pIC50    6.03

[I] Cn1c(=O)c2nc(-c3ccccc3)[nH]c2n(C)c1=O [8-PHENYL THEOPHYLLINE]
[II] OC[C@H]1O[C@@H](n2cnc3c(NC4CCCC4)ncnc32)[C@H](O)[C@@H]1O [N6-CYCLOPENTYLADENOSINE]
[III] Cn1c(=O)c2nc(Cc3ccccc3)[nH]c2n(C)c1=O
(Q) Rank by pIC50 (largest to smallest). Output spec: labels arranged per the requested ranking.
(A) II, I, III

---

# target_or_test_system: Adenosine A2 receptor (Rattus norvegicus, UniProt P29276+P30543)
metric: Ki (µM)

>>> print(df.to_string())
                                 cpd_smiles  number
0  OC[C@H]1O[C@@H](n2cnc3c(Nc4ccccc4)ncnc32)[C@H](O)[C@@H]1O    0.11

[1] CCCn1c(=O)c2nc([C@@H](C)Cc3ccccc3)[nH]c2n(CCC)c1=O
[2] OC[C@H]1O[C@@H](n2cnc3c(NC4CCCC4)ncnc32)[C@H](O)[C@@H]1O
(Q) Which record would sort first by descending Ki, 1 or 2 ? Lab note: record the label of whichever item you select.
(A) 1
(1: 0.848 µM, 2: 0.0011 µM)
